The reported numbers originate from ChEMBL document CHEMBL2157982.

Listed next: entries and their corresponding IC50.
biological target: Corticotropin-releasing factor receptor 1 (Homo sapiens); test: Antagonist activity at human CRF1 receptor expressed in HEK293 cells assessed as inhibition of CRF-induced intracellular cAMP production preincubated for 30 mins before CRF addition measured after 30 mins by enzyme immunoassay; assay type: functional, cell-based
Sequence (P34998 whole entry): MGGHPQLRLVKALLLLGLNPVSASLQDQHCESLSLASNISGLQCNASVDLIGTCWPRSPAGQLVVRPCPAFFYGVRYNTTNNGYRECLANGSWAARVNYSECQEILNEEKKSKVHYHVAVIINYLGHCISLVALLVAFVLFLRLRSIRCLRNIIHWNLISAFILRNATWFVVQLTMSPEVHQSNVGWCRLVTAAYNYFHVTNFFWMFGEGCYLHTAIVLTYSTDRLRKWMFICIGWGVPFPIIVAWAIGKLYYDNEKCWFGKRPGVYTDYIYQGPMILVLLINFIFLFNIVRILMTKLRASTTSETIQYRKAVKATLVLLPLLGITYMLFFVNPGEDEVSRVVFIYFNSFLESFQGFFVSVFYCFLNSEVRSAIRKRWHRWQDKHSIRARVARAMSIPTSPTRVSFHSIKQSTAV

smilesStr | IC50, nM
CCN(CC)c1ccc(F)c2nc(-c3c(OC)cc(COC)cc3OC)c(C)cc12 | 67
CCN(CC)c1ccc(OC)c2nc(-c3c(OC)cc(C#N)cc3OC)c(C)cc12 | 63
CCN(CC)c1ccc(Cl)c2nc(-c3c(OC)cc(COC)cc3OC)c(C)cc12 | 28
COCCN(CC(C)C)c1ccc(OC)c2nc(-c3c(OC)cc(COC)cc3OC)c(C)cc12 | 65
